test system: Plasmodium falciparum; assay: Antiplasmodial activity against chloroquine-sensitive Plasmodium falciparum NF54 infected in human RBC assessed as reduction in [3H]hypoxanthine incorporation preincubated for 48 hrs followed by [3H]hypoxanthine addition measured after 24 hrs by liquid scintillation counting method; assay type: functional

# LINE_NOTATION, DISPLAY_UNIT, IC50
measured = [
    ("CCCN(CCC)CC(=O)NCCNc1ccnc2cc(Cl)ccc12", "nM", 14),
    ("Clc1ccc2c(NCCN3CCCCCC3)ccnc2c1", "nM", 3.3),
    ("Clc1ccc2c(NCCCN3CCCCCC3)ccnc2c1", "nM", 6.3),
]

###

experiment: Cytotoxicity against rat L6 cells assessed as growth inhibition after 70 hrs by alamar blue assay; assay type: toxicity
Each entry below lists one item and its recorded IC50 at 70 h value.

# MOLECULE, DISPLAY_UNIT, IC50 at 70 h
data = [
    ("CCN(CC)CCCC(C)Nc1ccnc2cc(Cl)ccc12 (configuration not stated)", "µM", 90.9),
    ("Nc1nc(N)nc(Nc2ccc([As]3SCC(CO)S3)cc2)n1 (configuration not stated)", "µM", 7.78),
    ("CCCN(CCC)CCNc1ccnc2cc(Cl)ccc12", "µM", 14.9),
    ("CN1CCN(CC(=O)N2CCN(c3ccnc4cc(Cl)ccc34)CC2)CC1", "µM", 79.8),
    ("CCCN(CCC)CC(=O)NCCNc1ccnc2cc(Cl)ccc12", "µM", 22),
    ("CN1CCN(CC(=O)NCCNc2ccnc3cc(Cl)ccc23)CC1", "µM", 38.1),
    ("O=C(CN1CCCC1)NCCNc1ccnc2cc(Cl)ccc12", "µM", 46.4),
    ("CCCN(CCC)CCN1CCN(c2ccnc3cc(Cl)ccc23)CC1", "µM", 56.8),
    ("Clc1ccc2c(NCCNCCN3CCCCCC3)ccnc2c1", "µM", 76.1),
    ("O=C(CN1CCCCCC1)NCCNc1ccnc2cc(Cl)ccc12", "µM", 14.2),
    ("O=C(CN1CCCCC1)NCCNc1ccnc2cc(Cl)ccc12", "µM", 23.7),
    ("CN1CCN(CCNc2ccnc3cc(Cl)ccc23)CC1", "µM", 16.7),
]

###

assay: Selectivity index, ratio of IC50 for rat L6 cells to IC50 for chloroquine-sensitive Plasmodium falciparum NF54 infected in human RBC; assay type: toxicity, cell-based; conditions: read-out: Ratio IC50
Use 2000 as the dividing line for selectivity ratio, with the line itself on the Fulfilled side and lower values as Not fulfilled.

# LINE_NOTATION, CLASS_ASSIGNMENT
records = [
    ("O=C(CN1CCCC1)NCCNc1ccnc2cc(Cl)ccc12", "Fulfilled"),
    ("CN1CCN(CCNc2ccnc3cc(Cl)ccc23)CC1", "Fulfilled"),
    ("Clc1ccc2c(N3CCN(CCN4CCCCCC4)CC3)ccnc2c1", "Not fulfilled"),
    ("CCCN(CCC)CCNc1ccnc2cc(Cl)ccc12", "Fulfilled"),
    ("O=C(CN1CCCCC1)NCCNc1ccnc2cc(Cl)ccc12", "Fulfilled"),
    ("CN1CCN(CC(=O)N2CCN(c3ccnc4cc(Cl)ccc34)CC2)CC1", "Not fulfilled"),
    ("O=C(CN1CCCCCC1)NCCNc1ccnc2cc(Cl)ccc12", "Not fulfilled"),
    ("CCCN(CCC)CCN1CCN(c2ccnc3cc(Cl)ccc23)CC1", "Not fulfilled"),
    ("CN1CCN(CC(=O)NCCNc2ccnc3cc(Cl)ccc23)CC1", "Not fulfilled"),
    ("Clc1ccc2c(NCCN3CCCCCC3)ccnc2c1", "Fulfilled"),
    ("CCCN(CCC)CC(=O)N1CCN(c2ccnc3cc(Cl)ccc23)CC1", "Not fulfilled"),
    ("Clc1ccc2c(NCCNCCN3CCCCCC3)ccnc2c1", "Fulfilled"),
    ("Clc1ccc2c(NCCCN3CCCCCC3)ccnc2c1", "Fulfilled"),
    ("CN1CCN(CCCNc2ccnc3cc(Cl)ccc23)CC1", "Fulfilled"),
    ("CCCN(CCC)CC(=O)NCCNc1ccnc2cc(Cl)ccc12", "Not fulfilled"),
]
